target: Histamine H4 receptor (Homo sapiens) (UniProt Q9H3N8); assay: Displacement of [3H]-histamine from human histamine H4 receptor; set-up: concentration or dose not given beside the values; settings: concentration not given here
Sequence (Q9H3N8 whole entry): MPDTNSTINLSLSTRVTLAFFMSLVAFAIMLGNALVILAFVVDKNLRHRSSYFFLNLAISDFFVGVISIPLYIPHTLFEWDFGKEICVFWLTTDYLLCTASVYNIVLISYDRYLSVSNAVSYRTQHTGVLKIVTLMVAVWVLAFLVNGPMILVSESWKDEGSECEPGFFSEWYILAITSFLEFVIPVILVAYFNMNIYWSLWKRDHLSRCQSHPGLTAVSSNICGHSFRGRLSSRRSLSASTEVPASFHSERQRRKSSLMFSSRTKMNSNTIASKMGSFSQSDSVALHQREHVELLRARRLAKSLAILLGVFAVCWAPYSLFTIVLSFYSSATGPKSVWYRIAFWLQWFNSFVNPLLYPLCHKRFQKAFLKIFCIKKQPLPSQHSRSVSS
Assay metric: inhibition (%)
Numbers only here, please. The scale is %.

input: I'd like to know its inhibition. The compound in question is CC(C)N1CCC(Oc2ccc3c(c2)cc2n3CCN(Cc3ccncc3)C2=O)CC1
output: 3

input: Do the same for CC(C)N1CCC(Oc2ccc3c(c2)cc2n3CCN(Cc3ccc(F)cc3)C2=O)CC1 please
output: 1

input: Do the same for O=C1NCCn2c1cc1cc(OCCCN3CCCCC3)ccc12 please
output: 8

input: Do the same for CC(C)N1CCC(Oc2ccc3c(c2)cc2n3CCN(C(C)C)C2=O)CC1 please
output: -6

input: Do the same for C[C@H]1CCCN1CCCOc1ccc2c(c1)cc1n2CCNC1=O please
output: 4

input: Do the same for CC(C)N1CCC(Oc2ccc3c(c2)cc2n3CCN(Cc3cccnc3)C2=O)CC1 please
output: 3
